Hi there, I'd appreciate the recorded IC50 for every entry that follows.
Molecular target: EGFR wildtype (WT) (Homo sapiens)
Sequence (P00533 25-1210): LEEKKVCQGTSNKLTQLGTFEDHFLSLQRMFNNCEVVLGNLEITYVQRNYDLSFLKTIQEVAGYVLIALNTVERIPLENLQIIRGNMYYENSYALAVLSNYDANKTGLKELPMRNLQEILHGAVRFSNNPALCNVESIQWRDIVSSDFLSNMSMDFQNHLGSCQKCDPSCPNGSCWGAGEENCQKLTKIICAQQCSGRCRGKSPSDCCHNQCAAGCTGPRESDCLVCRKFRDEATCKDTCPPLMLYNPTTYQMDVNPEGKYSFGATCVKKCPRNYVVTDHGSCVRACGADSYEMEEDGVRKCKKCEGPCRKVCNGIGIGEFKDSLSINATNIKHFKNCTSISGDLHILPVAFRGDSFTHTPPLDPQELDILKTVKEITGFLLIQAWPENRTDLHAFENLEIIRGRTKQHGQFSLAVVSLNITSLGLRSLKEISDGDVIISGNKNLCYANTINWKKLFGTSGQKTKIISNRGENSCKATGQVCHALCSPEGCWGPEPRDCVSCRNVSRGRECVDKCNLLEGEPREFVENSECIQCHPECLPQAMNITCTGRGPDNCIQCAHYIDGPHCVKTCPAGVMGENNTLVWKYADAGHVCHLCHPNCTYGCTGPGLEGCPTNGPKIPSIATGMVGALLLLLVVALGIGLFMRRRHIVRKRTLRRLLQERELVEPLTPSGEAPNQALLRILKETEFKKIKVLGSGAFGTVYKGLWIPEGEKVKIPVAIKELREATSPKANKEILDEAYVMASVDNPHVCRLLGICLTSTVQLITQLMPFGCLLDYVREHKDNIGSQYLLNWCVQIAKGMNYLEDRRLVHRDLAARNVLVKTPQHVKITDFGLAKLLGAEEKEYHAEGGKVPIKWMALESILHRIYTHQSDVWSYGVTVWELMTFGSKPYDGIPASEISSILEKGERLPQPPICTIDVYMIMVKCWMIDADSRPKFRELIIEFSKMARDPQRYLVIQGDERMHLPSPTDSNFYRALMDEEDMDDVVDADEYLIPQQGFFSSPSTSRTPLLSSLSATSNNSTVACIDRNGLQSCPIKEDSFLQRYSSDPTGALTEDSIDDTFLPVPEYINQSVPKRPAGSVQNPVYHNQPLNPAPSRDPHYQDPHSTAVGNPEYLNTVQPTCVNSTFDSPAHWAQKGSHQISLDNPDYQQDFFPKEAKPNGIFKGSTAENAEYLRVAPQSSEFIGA
Assay: Biochemical EGFR kinase assay (Lance Ultra TR-FRET), wildtype
Details: Km ATP; read-out: IC50 WT (nM) Km ATP
One number for each entry, in nM.

Solved cases (2 shown):
O=S(=O)(C1CC1)n1cc(-c2nccc(Nc3cc(N[C@@H]4CCC[C@H](O)C4)c(-c4csc(C(F)(F)F)n4)cn3)n2)cn1: 418
CC1(O)CCC(Nc2cc(Nc3ccnc(-c4cnn(C5CCCCO5)c4)n3)ncc2-c2ccn(C(F)F)n2)CC1 (centres unmarked): 595

Field: IC50. Fill in for each record below.
1. CN(C)CC1CCC(Nc2cc(Nc3ccnc(-c4cnn(S(=O)(=O)C5CC5)c4)n3)ncc2-c2ccn(C3COC3)n2)CC1 (centres unmarked)
2. O=S(=O)(C1CC1)n1cc(-c2nccc(Nc3cc(N[C@H]4CC[C@@H](CC(F)F)CC4)c(-c4ccn(C(F)F)n4)cn3)n2)cn1
3. O=S(=O)(C1CC1)n1cc(-c2nccc(Nc3cc(NCC4CC5(CNC5)C4)c(-c4ccn(C(F)F)n4)cn3)n2)cn1
4. O=S(=O)(C1CC1)n1cc(-c2nccc(Nc3cc(N[C@H]4CC[C@H](O)C4)c(-c4ccn(C(F)F)n4)cn3)n2)cn1
5. Cn1ccc(-c2cnc(Nc3ccnc(-c4cnn(S(=O)(=O)C5CC5)c4)n3)cc2N[C@H]2CC[C@](O)(C(F)F)CC2)n1
6. CS(=O)(=O)N1CC=C(c2nccc(Nc3cc(N[C@H]4CC[C@@](C)(O)CC4)c(-c4ccn(C(F)F)n4)cn3)n2)CC1

1. 0.8
2. 87.1
3. 6.7
4. 21.1
5. 37.3
6. 986

Field: IC50. Fill in for each record below.
1. FC(F)Cn1cc(-c2nccc(Nc3cc(NC4CCCC(F)C4)c(-c4ccn(C(F)F)n4)cn3)n2)cn1 (centres unmarked)
2. Cn1ccc(-c2cnc(Nc3ccnc(-c4cnn(S(=O)(=O)C5CC5)c4)n3)cc2NC2CCCC(NCC(F)F)C2)n1 (centres unmarked)
3. Cc1cnn(-c2cnc(Nc3ccnc(-c4cnn(S(=O)(=O)C5CC5)c4)n3)cc2N[C@H]2CC[C@@](C)(O)CC2)c1
4. O=S(=O)(C1CC1)n1cc(-c2nccc(Nc3cc(NC4CCC(F)(F)C4)c(-c4ccn(C(F)F)n4)cn3)n2)cn1 (centres unmarked)
5. Cn1nc(-c2cnc(Nc3ccnc(-c4cnn(S(=O)(=O)C5CC5)c4)n3)cc2NC[C@H]2CC[C@@H](O)C2)cc1C(F)(F)F
6. CC(=O)N1CC=C(c2nccc(Nc3cc(N[C@H]4CC[C@@](C)(O)CC4)c(-c4ccn(C(F)F)n4)cn3)n2)CC1
7. O=S(=O)(C1CC1)n1cc(-c2nccc(Nc3cc(NC[C@H]4C[C@@H](O)C4)c(-c4ccn(C(F)F)n4)cn3)n2)cn1
8. Cn1nc(-c2cnc(Nc3ccnc(-c4cnn(S(=O)(=O)C5CC5)c4)n3)cc2N[C@H]2CC[C@@H](CO)CC2)cc1C(F)(F)F

418
37.8
32
264
6.4
327
32.9
3.4

Field: IC50. Fill in for each record below.
1. Cc1nn(CC(F)(F)F)cc1-c1nccc(Nc2cc(N[C@H]3CC[C@@](C)(O)CC3)c(-c3ccn(C(F)F)n3)cn2)n1
2. O=S(=O)(C1CC1)n1cc(-c2nccc(Nc3cc(N[C@H]4CCC[C@H](O)C4)c(-c4ccn(C(F)F)n4)cn3)n2)cn1
3. O=S(=O)(C1CC1)n1cc(-c2nccc(Nc3cc(NC[C@H]4CC[C@H](CO)CC4)c(-c4ccn(C(F)F)n4)cn3)n2)cn1

33.5
5.4
22.4
